Biological target: VR1 (Homo sapiens)
Sequence (Q8NER1 whole entry): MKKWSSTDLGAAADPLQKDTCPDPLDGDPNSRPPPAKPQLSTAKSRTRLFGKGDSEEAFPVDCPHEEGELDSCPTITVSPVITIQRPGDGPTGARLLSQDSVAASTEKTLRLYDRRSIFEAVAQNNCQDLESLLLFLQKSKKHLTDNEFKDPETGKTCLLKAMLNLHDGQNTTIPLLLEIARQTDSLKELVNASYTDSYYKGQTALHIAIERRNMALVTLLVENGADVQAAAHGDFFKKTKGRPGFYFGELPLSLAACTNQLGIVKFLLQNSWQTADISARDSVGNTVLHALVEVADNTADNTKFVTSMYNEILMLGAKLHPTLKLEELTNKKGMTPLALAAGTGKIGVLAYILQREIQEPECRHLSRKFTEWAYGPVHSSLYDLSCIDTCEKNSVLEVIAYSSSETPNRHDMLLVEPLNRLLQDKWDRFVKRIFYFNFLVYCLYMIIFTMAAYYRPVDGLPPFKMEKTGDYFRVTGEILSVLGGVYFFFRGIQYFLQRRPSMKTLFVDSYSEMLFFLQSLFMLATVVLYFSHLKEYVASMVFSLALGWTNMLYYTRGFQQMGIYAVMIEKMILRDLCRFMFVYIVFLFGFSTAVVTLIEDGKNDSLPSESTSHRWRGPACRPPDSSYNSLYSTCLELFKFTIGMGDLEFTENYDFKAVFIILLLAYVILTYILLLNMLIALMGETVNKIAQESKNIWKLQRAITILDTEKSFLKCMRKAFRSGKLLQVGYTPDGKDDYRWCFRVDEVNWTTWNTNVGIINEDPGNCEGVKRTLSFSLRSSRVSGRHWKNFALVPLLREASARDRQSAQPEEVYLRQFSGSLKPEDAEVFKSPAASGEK
Assay: Calcium uptake assay, low pH (proton) stimulus
Type: cell-based
Set-up: expressed in transfected cells; host or cells: T-REx HEK 293 (Invitrogen), pcDNA5/TO vector
Details: HEK293; 0.3 μM compound; low pH agonist; HEK 293 cells expressing hVR1; read-out: Low pH % Inhib. @ 0.3 μM
endpoint_label: inhibition at 0.3 µM (%)
Answer format: numeric, % implied, no suffix.

- molecule: "Cc1cc(/C=C/C(F)(F)F)ccc1C(=O)Nc1ccc2ncccc2c1"
  endpoint_label: "inhibition at 0.3 µM"
  units_of_measure: "%"
  meas_value: 82
- molecule: "CC(C)(C)C#Cc1cc(Cl)c(C(=O)Nc2ccc3c(c2)OCC(CO)O3)cc1F (centres unmarked)"
  endpoint_label: "inhibition at 0.3 µM"
  units_of_measure: "%"
  meas_value: 83

Entry O=C(Nc1ccc2c(c1)OCC(CO)O2)c1ccc(/C=C/C(F)(F)F)cc1F (centres unmarked) : reported inhibition at 0.3 µM = ?
71
